- Test Protocol: amyloid nucleation score (Sup35N fusion, yeast selection) (log enrichment); library NNK3; higher = more nucleation; inactive = no reads after selection;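 also: zero at mode of non-aggregating sequences after 7 days selection at 30°C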
Measurement Type: amyloid nucleation score

Substance	amyloid nucleation score
AGGSVYKIVEFSCLLFNQKY	inactive
NWCILTLNGVSGRIRLPCWS	0.405
VENVDYFCDFGTISIL	1.66
WTMSLLQFDLDTSTSTLTMV	inactive
MRLDRS	inactive

Req: Give the reported amyloid nucleation score for this substance. RDLVPLDDRA
Resp: inactive

Req: Supply reported amyloid nucleation score belonging to this substance: FSSSPR
Resp: inactive

Req: Give reported amyloid nucleation score value for VFNFPQSDGNRSYMDFMAIQ
Resp: inactive
